assay.system: human β3 adrenergic receptor (Homo sapiens)
Construct: stably transfected with the cloned β-adrenergic receptor (β1, β2 or β3); expressed in transfected cells; host or cells: Chinese hamster ovary (CHO) cells, stably transfected
Sequence (P13945 whole entry): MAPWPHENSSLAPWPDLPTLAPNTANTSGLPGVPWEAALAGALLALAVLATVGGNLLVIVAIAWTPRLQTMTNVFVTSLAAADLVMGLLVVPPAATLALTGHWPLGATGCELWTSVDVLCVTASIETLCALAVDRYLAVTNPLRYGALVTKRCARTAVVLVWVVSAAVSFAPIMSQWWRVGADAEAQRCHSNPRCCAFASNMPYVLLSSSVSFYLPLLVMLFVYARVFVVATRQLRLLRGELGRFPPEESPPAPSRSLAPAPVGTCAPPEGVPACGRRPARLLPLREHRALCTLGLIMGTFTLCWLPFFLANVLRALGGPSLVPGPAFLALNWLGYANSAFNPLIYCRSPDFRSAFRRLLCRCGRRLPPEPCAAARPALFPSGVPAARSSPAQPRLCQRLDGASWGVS
method: Functional assay: cAMP production (LANCE TR-FRET) in CHO cells stably transfected with cloned β3 adrenergic receptor
Format: cell-based
settings: Table 3; cAMP production, CHO cells expressing human β3 AR; read-out: Human β3 functional
experimental.readout: EC50

>>> recorded_measurement("Cc1nc2c(s1)CCC2C(=O)Nc1ccc(CC2CC[C@H]([C@H](O)c3cccnc3)N2)cc1 (single isomer, unassigned) [Example 117]")
"0.011 to 0.1 µM"
>>> recorded_measurement("CCC(C(=O)Nc1ccc(CC2CC[C@H]([C@H](O)c3cccnc3)N2)cc1)c1cscn1 (single isomer, unassigned) [Example 204]")
"0.001 to 0.01 µM"
>>> recorded_measurement("Cc1cn(C(C)C(=O)Nc2ccc(CC3CC[C@H]([C@H](O)c4cccnc4)N3)cc2)nn1 (single isomer, unassigned) [Example 211]")
"0.011 to 0.1 µM"
>>> recorded_measurement("CC(C(=O)Nc1ccc(CC2CC[C@H]([C@H](O)c3cccnc3)N2)cc1)n1cnccc1=O (single isomer, unassigned) [Example 165]")
"0.001 to 0.01 µM"
>>> recorded_measurement("O=C(Cc1nc2c(s1)CCC2C(=O)Nc1ccc(CC2CC[C@H]([C@H](O)c3cccnc3)N2)cc1)NCc1ccccc1 (single isomer, unassigned) [Example 136]")
"0.001 to 0.01 µM"

Now for the compound whose EC50 we want.
[in] Write down EC50 measured for item CC(C(=O)Nc1ccc(CC2CC[C@H]([C@H](O)c3cccnc3)N2)cc1)c1csc(C(F)(F)F)n1 (single isomer, unassigned) [Example 112]
[out] 0.101 to 1 µM
